- Target Or System: AccA (Agrobacterium fabrum)
- Protocol Text: AccA isothermal titration microcalorimetry
- Type: binding, Agrobacterium tumefaciens C58
- Condition Parameters: ITC, 20°C
- Sequence (Q52012 entry or part of it): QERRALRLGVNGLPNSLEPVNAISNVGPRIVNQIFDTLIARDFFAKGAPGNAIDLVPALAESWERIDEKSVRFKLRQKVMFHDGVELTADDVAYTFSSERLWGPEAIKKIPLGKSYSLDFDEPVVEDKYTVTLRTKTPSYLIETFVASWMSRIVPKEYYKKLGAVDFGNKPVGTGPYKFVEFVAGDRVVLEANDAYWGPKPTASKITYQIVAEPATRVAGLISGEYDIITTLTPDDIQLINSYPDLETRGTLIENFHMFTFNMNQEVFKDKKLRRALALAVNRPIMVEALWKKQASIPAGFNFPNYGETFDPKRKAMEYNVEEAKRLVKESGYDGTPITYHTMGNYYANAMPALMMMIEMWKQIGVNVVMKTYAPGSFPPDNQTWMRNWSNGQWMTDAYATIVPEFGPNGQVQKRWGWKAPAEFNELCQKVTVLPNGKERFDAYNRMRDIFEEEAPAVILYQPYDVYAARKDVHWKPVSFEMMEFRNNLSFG
Property Name: TΔS

compound="O=C[C@H](OP(=O)(O)O)[C@@H](O)[C@@H](O)CO [L-arabinose-2-phosphate]" target_or_system="AccA (Agrobacterium fabrum)" property_name=TΔS quantitative_result=-3.2E3
compound="O=P(O)(OC1C(O)OCC(O)C1O)OC1C(CO)OC(CO)(OC2OC(CO)C(O)C(O)C2O)C1O (stereo not shown) [agrocinopine A]" target_or_system="AccA (Agrobacterium fabrum)" property_name=TΔS quantitative_result=-2.6E3
compound="O=C(OC1C(OP(=O)(O)OC2C(O)OCC(O)C2O)C(CO)OC1(CO)OC1OC(CO)C(O)C(O)C1O)c1ccccc1 (stereo not shown) [agrocinopine 3’-O-benzoate]" target_or_system="AccA (Agrobacterium fabrum)" property_name=TΔS quantitative_result=3.2E3

###

- Target Or System: AccR (Agrobacterium fabrum)
- Sequence (P32104 whole entry): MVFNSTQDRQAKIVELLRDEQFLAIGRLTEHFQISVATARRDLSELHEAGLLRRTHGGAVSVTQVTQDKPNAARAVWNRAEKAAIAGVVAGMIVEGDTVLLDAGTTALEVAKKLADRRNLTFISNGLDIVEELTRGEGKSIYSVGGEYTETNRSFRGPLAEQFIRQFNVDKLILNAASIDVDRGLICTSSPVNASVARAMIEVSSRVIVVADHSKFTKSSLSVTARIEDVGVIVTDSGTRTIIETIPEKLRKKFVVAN
Property Name: Kd (nM)

molecule="O=C[C@H](OP(=O)(O)O)[C@@H](O)[C@@H](O)CO [L-arabinose-2-phosphate]" property_name=Kd quantitative_result=110

###

- Target Or System: AccA (Agrobacterium fabrum)
- Protocol Text: biochemical
- Type: binding, Agrobacterium tumefaciens C58
- Sequence (Q52012 30-521 limits assumed): as the sequence (Q52012 entry or part of it) above
Property Name: Kd (nM)

compound="O=P(O)(O)O[C@H]1C(O)O[C@H](CO)[C@@H](O)[C@@H]1O (stereo partly shown)" property_name=Kd quantitative_result=2500

###

// reported N (binding stoichiometry) per item
- Target Or System: AccA (Agrobacterium fabrum, UniProt Q52012)
- Protocol Text: AccA isothermal titration microcalorimetry
- Assay type: binding, Agrobacterium tumefaciens C58
- Condition Parameters: ITC, 20°C, one binding site model
Property Name: N (binding stoichiometry)

compound="O=P(O)(OC1C(O)OCC(O)C1O)OC1C(CO)OC(CO)(OC2OC(CO)C(O)C(O)C2O)C1O (stereo not shown) [agrocinopine A]" target_or_system="AccA (Agrobacterium fabrum, UniProt Q52012)" quantitative_result=1
compound="O=C(OC1C(OP(=O)(O)OC2C(O)OCC(O)C2O)C(CO)OC1(CO)OC1OC(CO)C(O)C(O)C1O)c1ccccc1 (stereo not shown) [agrocinopine 3’-O-benzoate]" target_or_system="AccA (Agrobacterium fabrum, UniProt Q52012)" quantitative_result=0.99
compound="CC(C)OP(=O)(O)O[C@H]1C(O)OC[C@H](O)[C@@H]1O (stereo partly drawn) [L-arabinose-2-isopropylphosphate]" target_or_system="AccA (Agrobacterium fabrum, UniProt Q52012)" quantitative_result=1.08
compound="O=C[C@H](OP(=O)(O)O)[C@@H](O)[C@@H](O)CO [L-arabinose-2-phosphate]" target_or_system="AccA (Agrobacterium fabrum, UniProt Q52012)" quantitative_result=0.95

This collection of values is drawn from paper PMC4526662.
